Source listed as patent US9108921B2.

// reported AC50 for each item listed
Target: PKR WT (Homo sapiens)
Sequence (P30613 whole entry): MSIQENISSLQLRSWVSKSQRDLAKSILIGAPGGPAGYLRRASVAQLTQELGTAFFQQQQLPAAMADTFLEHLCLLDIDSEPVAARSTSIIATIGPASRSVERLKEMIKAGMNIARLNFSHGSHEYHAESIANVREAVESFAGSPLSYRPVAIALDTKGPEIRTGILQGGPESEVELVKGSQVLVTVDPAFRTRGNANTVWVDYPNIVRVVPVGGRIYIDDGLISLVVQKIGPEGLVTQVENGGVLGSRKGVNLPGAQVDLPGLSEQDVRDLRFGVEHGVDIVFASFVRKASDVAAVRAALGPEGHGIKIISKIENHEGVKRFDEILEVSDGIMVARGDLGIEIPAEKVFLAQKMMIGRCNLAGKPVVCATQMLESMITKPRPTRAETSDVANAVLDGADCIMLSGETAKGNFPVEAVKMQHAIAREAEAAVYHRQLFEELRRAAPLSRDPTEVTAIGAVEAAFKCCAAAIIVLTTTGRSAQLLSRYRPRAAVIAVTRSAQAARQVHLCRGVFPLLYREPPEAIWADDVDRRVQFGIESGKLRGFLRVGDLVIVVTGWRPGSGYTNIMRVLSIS
Test: PKR WT enzymatic AC50 assay
Format: biochemical
Conditions: wild type PKR

Example molecules with recorded AC50:
{"molecule": "O=C(c1ccc(NS(=O)(=O)c2cccc3c(O)ncnc23)cc1)N1CCC(O)(/C=C/CC(F)(F)F)CC1", "AC50": "< 0.1 µM"}
{"molecule": "CC1(O)CCN(C(=O)c2ccc(NS(=O)(=O)c3cccc4cccnc34)cc2)CC1", "AC50": "1.01 to 10 µM"}

For the next question, use this molecule.
Q. May I ask what AC50 has been recorded for `O=C(c1ccc(NS(=O)(=O)c2cccc3scnc23)cc1)N1CCC(O)(CC2CC2)CC1` ?
A. < 0.1 µM
